- Test system: SK-OV-3
- assayExplanation: Growth inhibition of human SKOV3 cells incubated for 48 hrs by sulforhodamine B assay
- Type: functional, cell-based
- measurementConditions: SK-OV-3, 48 h, read-out: pGI50 (converted)
reportedProperty: GI50 (µM)

>>> reportedresult("COc1cc(Cl)cc(-c2nn(-c3cccc(NC(=O)Nc4ccc(Cl)c(C(F)(F)F)c4)c3)cc2-c2ccncc2)c1")
3.16
>>> reportedresult("O=C(Nc1cccc(-n2cc(-c3ccncc3)c(-c3cc(O)cc(Cl)c3)n2)c1)Nc1ccc(Cl)c(Cl)c1")
3.39

---

- Tested on: MCF7
- assayExplanation: Growth inhibition of human MCF7 cells incubated for 48 hrs by sulforhodamine B assay
- Type: functional, cell-based
- measurementConditions: MCF7, 48 h, read-out: GI50
Quick reference: GI50 of the listed items.
reportedProperty: GI50 (nM)

>>> reportedresult("COc1cc(Cl)cc(-c2nn(-c3cccc(NC(=O)Nc4ccc(Cl)c(Cl)c4)c3)cc2-c2ccncc2)c1")
2560
>>> reportedresult("COc1cc(Cl)cc(-c2nn(-c3cccc(NC(=O)Nc4ccc(Cl)c(C(F)(F)F)c4)c3)cc2-c2ccncc2)c1")
1010
>>> reportedresult("O=C(Nc1cccc(-n2cc(-c3ccncc3)c(-c3cc(O)cc(Cl)c3)n2)c1)Nc1ccc(Cl)c(Cl)c1")
2510
>>> reportedresult("COc1cc(Cl)cc(-c2nn(-c3cccc(NC(=O)Nc4cccc(C(F)(F)F)c4)c3)cc2-c2ccncc2)c1")
1480

---

- System: DU-145
- assayExplanation: Growth inhibition of human DU145 cells assessed as cell growth at 0.01 uM incubated for 48 hrs by sulforhodamine B assay relative to control
- Format: functional
- measurementConditions: DU-145, 48 h, read-out: Activity
Quick reference: growth at 0.01 µM of the listed items.
reportedProperty: growth at 0.01 µM (%)

>>> reportedresult("COc1cc(Cl)cc(-c2nn(-c3cccc(NC(=O)Nc4ccc(Cl)c(C(F)(F)F)c4)c3)cc2-c2ccncc2)c1")
103
>>> reportedresult("COc1cc(Cl)cc(-c2nn(-c3cccc(NC(=O)c4ccc(N5CCOCC5)c(C(F)(F)F)c4)c3)cc2-c2ccncc2)c1")
108
>>> reportedresult("COc1cc(Cl)cc(-c2nn(-c3cccc(NC(=O)Nc4ccc(Cl)c(Cl)c4)c3)cc2-c2ccncc2)c1")
101
>>> reportedresult("O=C(Nc1cccc(-n2cc(-c3ccncc3)c(-c3cc(O)cc(Cl)c3)n2)c1)c1ccc(N2CCOCC2)c(C(F)(F)F)c1")
100
>>> reportedresult("COc1cc(Cl)cc(-c2nn(-c3cccc(NC(=O)Nc4cccc(C(F)(F)F)c4)c3)cc2-c2ccncc2)c1")
101
>>> reportedresult("O=C(Nc1cccc(-n2cc(-c3ccncc3)c(-c3cc(O)cc(Cl)c3)n2)c1)Nc1ccc(Cl)c(Cl)c1")
108
>>> reportedresult("COc1cc(Cl)cc(-c2nn(-c3cccc(NC(=O)c4cccc(C(F)(F)F)c4)c3)cc2-c2ccncc2)c1")
109

---

Quick reference: CC50 of the listed items.
- Test system: UACC-257
- assayExplanation: Growth inhibition of human UACC257 cells incubated for 48 hrs by sulforhodamine B assay
- Type: functional, cell-based
- measurementConditions: UACC-257, 48 h, read-out: pLC50 (the source's name) (converted)
reportedProperty: CC50

>>> reportedresult("COc1cc(Cl)cc(-c2nn(-c3cccc(NC(=O)c4ccc(N5CCOCC5)c(C(F)(F)F)c4)c3)cc2-c2ccncc2)c1")
"> 100 µM"
>>> reportedresult("COc1cc(Cl)cc(-c2nn(-c3cccc(NC(=O)Nc4cccc(C(F)(F)F)c4)c3)cc2-c2ccncc2)c1")
"21.4 µM"
>>> reportedresult("COc1cc(Cl)cc(-c2nn(-c3cccc(NC(=O)c4cccc(C(F)(F)F)c4)c3)cc2-c2ccncc2)c1")
"> 100 µM"
>>> reportedresult("COc1cc(Cl)cc(-c2nn(-c3cccc(NC(=O)Nc4ccc(Cl)c(Cl)c4)c3)cc2-c2ccncc2)c1")
"> 100 µM"
